Entries annotated with measured IC50
Target: recombinant human MMP-12 catalytic domain (Homo sapiens)
Construct: recombinant human MMP-12 catalytic domain
Sequence (P39900 106-263 limits assumed): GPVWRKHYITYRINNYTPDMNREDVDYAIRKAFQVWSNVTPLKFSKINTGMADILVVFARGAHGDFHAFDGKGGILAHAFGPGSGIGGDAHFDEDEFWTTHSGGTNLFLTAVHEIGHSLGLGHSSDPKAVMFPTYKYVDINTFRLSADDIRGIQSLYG
Assay: MMP-12 inhibitory assay (fluorogenic MMP substrate cleavage)
Conditions: readout at 30 minutes

molecule | IC50
Cc1cc(CNc2ccc(Sc3ccoc3C3NC(=O)NC3=O)cc2)ccn1 (stereo not shown) | 10 to 100 nM
Cc1cccc(COc2ccc(Sc3ccoc3C3NC(=O)NC3=O)cc2)[n+]1[O-] (stereo not shown) | > 1000 nM
Cc1cc(NCc2ccc(Sc3ccoc3C3NC(=O)NC3=O)cc2)ccn1 (stereo not shown) | 100 to 1000 nM
Cc1cc(CCc2ccc(Sc3ccoc3C3NC(=O)NC3=O)cc2)ccn1 (stereo not shown) | 10 to 100 nM
